- System: MOLT-4 leukemia
- Assay: NCI tumour cell line growth inhibition, 48 h
# GI50 listing for each entry below
Reported property: GI50

Cc1nc2sc(C(=O)Nc3cccc4c3OCCO4)c(N)c2cc1C(C)O (stereo unspecified) | 4.97 µM
O=C(N/N=C/c1cc(Cl)cc(Cl)c1[O-])c1ccccc1O.O=C(N/N=C/c1cc(Cl)cc(Cl)c1[O-])c1ccccc1O.[Mn+2] | 0.289 µM
N#C/C(=C\c1ccccn1)c1nc2ccccc2o1 | 24.6 µM
O=C(N/N=C/c1coc2ccc(Cl)cc2c1=O)c1cc(O)c(O)c(O)c1 | 13.7 µM
O=C1C=CC(=O)N1c1ccc2ccccc2c1 | 4.49 µM
COc1cc(/C=C2\CC3C4CC=C5C[C@@H](N6CCCC6)CC[C@]5(C)C4CC[C@]3(C)[C@H]2OC(C)=O)ccc1OCCCn1ccnc1 (stereo partly specified) | 0.206 µM
Nc1ncnc2occ(-c3ccc(NC(=O)Nc4cccc(C(F)(F)F)c4)cc3)c12 | 3.54 µM
C[C@H]1CCC/C=C/[C@@H]2C[C@H](O)C[C@H]2[C@H](O)C(O)C(O)C(=O)O1 (stereo partly specified) | 0.906 µM
COC(=O)c1cc2c3cc(Cl)ccc3[nH]c2c2ncccc12 | > 100 µM
CC(C)C[C@H](NC(=O)[C@@H](N)Cc1cccc2ccccc12)B(O)O | 0.21 µM
O=C(NCCc1nccs1)c1cnc2c(S)cccc2c1 | 1.14 µM
CCn1cnc(C[C@H](NC(=O)[C@@H](NC(=O)Nc2cc(C(F)(F)F)cc(C(F)(F)F)c2)C(C)(C)C)C(=O)OC)c1 | > 10 µM
O=S(=O)([O-])c1ccc(C=Nc2ccccc2)c([O-])c1.O=S(=O)([O-])c1ccc(C=Nc2ccccc2)c([O-])c1.[Co+2] | 7.71 µM
Cc1nc2ccccc2c(/C=C/c2ccc(F)cc2)c1C(=O)/C=C/c1ccccc1 | 1.74 µM
O=C1CC[C@@H]2[C@H]3CCC(=O)c4c3c(c3cccc(O)c3c4O)O[C@@]23C(=O)c2cccc(O)c2C(O)=C13 | > 100 µM
COc1cc2c(cc1OCCCN1CCN(CCCOc3cc4c(cc3OC)C(=O)N3C[C@H](F)C[C@H]3C=N4)CC1)N=C[C@@H]1C[C@@H](F)CN1C2=O | < 0.018 µM

----------
- Test system: K-562 leukemia
- Assay: NCI tumour cell line growth inhibition, 48 h
Reported property: TGI

O=C1c2ccccc2-n2c1nc1ccc([N+](=O)[O-])cc1c2=O | > 100 µM
Cc1cc(O)c(C(O)c2ccccn2)cc1O (stereo not drawn) | > 100 µM
CSc1nc2c(ncn2C2OC(CO)C(O)C(O)C2O)c(=O)n1C (stereo not drawn) | > 100 µM
O=[N+]([O-])c1cc2c(ccc3ccccc32)o1 | 9.01 µM
Nc1nc2cc(COc3ccc(C(=O)O)cc3)ccc2nc1-c1ccccc1 | > 10 µM
CC1Nc2ccccc2NC1C=C(C#N)C#N (stereo not drawn) | 48.5 µM
CN(COC(=O)C(C)(C)C)c1nc(N(C)COC(=O)C(C)(C)C)nc(N(C)COC(=O)C(C)(C)C)n1 | > 100 µM
CN(C)c1ccc(-c2nc(N)nc3c2CCCC3)cc1 | > 100 µM
CCOC(=O)/C(=C\n1c(=O)sc2ccccc21)C(=O)c1ccccc1 | > 100 µM
O=C1CC[C@@H]2[C@H]3CCC(=O)c4c3c(c3cccc(O)c3c4O)O[C@@]23C(=O)c2cccc(O)c2C(O)=C13 | > 100 µM
C[C@]12CC/C(=N\OCCN3CCCC3)C=C1CCC1C2CC[C@@]2(C)C1CC[C@]2(C)O (stereo partly drawn) | 14.2 µM
C=CCC(NCc1ccccc1)c1cn(C(=O)OCC)c2ccccc12 (stereo not drawn) | 15 µM
O=C1CC2=CCCC2O1 (stereo not drawn) | > 100 µM

----------
Overview of reported TGI across a group of compounds:
- System: SK-MEL-28 melanoma
- Assay: NCI tumour cell line growth inhibition, 48 h
Where a SMILES comes first, the peptide text is derived from it. [ ]: non-standard residue; d: D form. The star is where a group is joined. Phe(4-NO2) = N[CH](Cc1ccc([N+](=O)[O-])cc1)C(=O)O; Cbz = O=C(OCc1ccccc1)*
Reported property: TGI

O=[N+]([O-])/C(C(Cl)=C(Cl)Cl)=C(\NCc1ccccc1)Sc1ccccc1 | 36.8 µM
CC1=NN(c2nc(N)nc(CCl)n2)C(C)(C)C1 | > 75.8 µM
O=S(=O)([O-])c1ccc(C=Nc2ccccc2)c([O-])c1.O=S(=O)([O-])c1ccc(C=Nc2ccccc2)c([O-])c1.[Co+2] | > 100 µM
CCOC(=O)CCC(NC(=O)OCc1ccccc1)C(=O)NC(CCC(=O)OCC)C(=O)NC(CCC(=O)OCC)C(=O)NC(CCC(=O)OCC)C(=O)NC(CCC(=O)OCC)C(=O)NC(Cc1ccc([N+](=O)[O-])cc1)C(=O)NC(CCC(=O)OCC)C(=O)NC(CCC(=O)OCC)C(=O)NC(CCC(=O)OCC)C(=O)NC(CCC(=O)OCC)C(=O)NC(CCC(=O)OCC)C(=O)OCC (stereo unspecified) (Cbz-E(OEt)E(OEt)E(OEt)E(OEt)E(OEt)[Phe(4-NO2)]E(OEt)E(OEt)E(OEt)E(OEt)E(OEt)-OEt; configuration not given here) | > 50 µM
CCCCCCCCCCCCCCCCNc1nc(=O)n(C2CC(O)C(COP(=O)(O)OC3CC(n4cc(F)c(=O)[nH]c4=O)OC3CO)O2)cc1F (stereo unspecified) | > 68.7 µM
CCOC(=O)/C(=C\n1c(=O)sc2ccccc21)C(=O)c1ccccc1 | > 100 µM

----------
- System: LOX IMVI melanoma
- Assay: NCI tumour cell line growth inhibition, 48 h
Consider the following compounds and their measured TGI readings.
Reported property: TGI

O=C(/C=C/c1cccc(Cl)c1)c1ccccc1 | 10.8 µM
COc1ccccc1NC(=S)Nc1ccccn1 | > 100 µM
CC(C)CC1CC2C(=O)N(c3ccccc3)C(=O)C2c2[nH]c3ccccc3c21 (stereo unspecified) | > 87.8 µM
ON[C@@H]1C=C[C@H](n2cnc3c(NC4CC4)ncnc32)C1 | > 100 µM
COc1cc(CNc2ccc(C)cc2)cc(OC)c1OC | > 100 µM
O=C1C[C@@H]2[C@@H](C=CC23CCCC3)N1O | > 100 µM

----------
# TGI listing for each entry below
- Test system: UO-31 renal
- Assay: NCI tumour cell line growth inhibition, 48 h
Reported property: TGI

Oc1ccc(Br)cc1C=Nc1ccc(Oc2ccc(N=Cc3cc(Br)ccc3O)cc2)cc1 | > 19.6 µM
Cc1c2cnccc2c(C)c2c1c1ccccc1n2CCCCCCCl | > 50 µM
COc1c(O)ccc(/C=N/NC(=S)NCOCCOC(C)=O)c1OC | > 100 µM
O=S(=O)([O-])c1ccc(C=Nc2ccccc2)c([O-])c1.O=S(=O)([O-])c1ccc(C=Nc2ccccc2)c([O-])c1.[Co+2] | > 100 µM
CC1(C)CCOC(Sc2ccccc2)C1 (stereo unspecified) | > 100 µM
CCOC(=O)C1=C(C)N(Cc2ccccc2)C2(O)C=CC(=O)C3C(=O)N(c4ccccc4)C(=O)C132 (stereo unspecified) | 3.81 µM

----------
- Tested on: SNB-75 CNS
- Assay: NCI tumour cell line growth inhibition, 48 h
Where a SMILES comes first, the peptide text is derived from it. [ ]: non-standard residue; d: D form. The star is where a group is joined. Phe(4-NO2) = N[CH](Cc1ccc([N+](=O)[O-])cc1)C(=O)O; Cbz = O=C(OCc1ccccc1)*
Reported property: TGI

CCOC(=O)CCC(NC(=O)OCc1ccccc1)C(=O)NC(CCC(=O)OCC)C(=O)NC(CCC(=O)OCC)C(=O)NC(CCC(=O)OCC)C(=O)NC(CCC(=O)OCC)C(=O)NC(Cc1ccc([N+](=O)[O-])cc1)C(=O)NC(CCC(=O)OCC)C(=O)NC(CCC(=O)OCC)C(=O)NC(CCC(=O)OCC)C(=O)NC(CCC(=O)OCC)C(=O)NC(CCC(=O)OCC)C(=O)OCC (stereo unspecified) (Cbz-E(OEt)E(OEt)E(OEt)E(OEt)E(OEt)[Phe(4-NO2)]E(OEt)E(OEt)E(OEt)E(OEt)E(OEt)-OEt; configuration not given here) | > 50 µM

----------
Items are presented alongside their recorded TGI.
- Test system: UACC-62 melanoma
- Assay: NCI tumour cell line growth inhibition, 48 h
Reported property: TGI

CCOC(=O)CCC(NC(=O)c1ccc(Oc2nc3cc(N)cc(N)c3nc2-c2ccccc2)cc1)C(=O)OCC (stereo not given) | 31 µM
O=C1c2ccccc2C(=O)N1CCN(CCN1C(=O)c2ccccc2C1=O)Cc1ccccc1 | > 100 µM
CCCOC(=O)C1C(c2ccc(OC)cc2)NC(c2ccc(OC)cc2)C(C(=O)OCCC)S1(=O)=O (stereo not given) | > 100 µM
CC(C)CC1C(=O)OC(C)(C)OC1=O | > 100 µM
CCn1cnc(C[C@H](NC(=O)[C@@H](NC(=O)Nc2cc(C(F)(F)F)cc(C(F)(F)F)c2)C(C)(C)C)C(=O)OC)c1 | > 10 µM

The measured values listed here are drawn from PubChem BioAssay (NCI).
